Recorded values, source PubChem BioAssay AID1963871.

# Test system: KRAS-mutant PDC multicell tumor spheroid viability;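 also: viability read after seven days of drug exposure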
# Protocol notes: Anticancer human tumor 521955-158-R2-J5-PDC patient-derived pancreatic carcinoma cell line growth inhibition [KRAS2]
# Test parameters: second compound 10 µM; first compound 3.16 µM; hits give low values
Assign labels as follows, please: MET for viability, T/C below 20%; NOT MET for viability, T/C equal to or exceeding 20%.

[
  {
    "Compound": "COc1cc(Nc2ncc3c(n2)-c2ccc(Cl)cc2C(c2c(F)cccc2OC)=NC3)ccc1C(=O)O + C=CC(=O)N1CCN(c2nc(=O)n(-c3c(C)ccnc3C(C)C)c3nc(-c4c(O)cccc4F)c(F)cc23)C(C)C1",
    "Category": "NOT MET"
  },
  {
    "Compound": "COc1cc(Nc2ncc3c(n2)-c2ccc(Cl)cc2C(c2c(F)cccc2OC)=NC3)ccc1C(=O)O + COc1cc2nc(C)nc(NC(C)c3cc(N)cc(C(F)(F)F)c3)c2cc1OC1CCOC1",
    "Category": "MET"
  },
  {
    "Compound": "CC1(C)CCC(CN2CCN(c3ccc(C(=O)NS(=O)(=O)c4ccc(NCC5CCOCC5)c([N+](=O)[O-])c4)c(Oc4cnc5[nH]ccc5c4)c3)CC2)=C(c2ccc(Cl)cc2)C1 + CC1OCC2(CCN(c3cnc(Sc4ccnc(N)c4Cl)c(N)n3)CC2)C1N",
    "Category": "MET"
  },
  {
    "Compound": "CC1COCCN1c1cc(-c2ccnn2C)c2ccnc(-c3ccn[nH]3)c2n1 (stereo not given) + COc1cc2nc(C)nc(NC(C)c3cc(N)cc(C(F)(F)F)c3)c2cc1OC1CCOC1",
    "Category": "MET"
  },
  {
    "Compound": "CC1(C)CCC(CN2CCN(c3ccc(C(=O)NS(=O)(=O)c4ccc(NCC5CCOCC5)c([N+](=O)[O-])c4)c(Oc4cnc5[nH]ccc5c4)c3)CC2)=C(c2ccc(Cl)cc2)C1 + CNCc1ccccc1-c1csc(C(C)Nc2nc(C)nc3cc(OC)c(OC)cc23)c1",
    "Category": "MET"
  },
  {
    "Compound": "COC(=O)c1ccc2c(C(=Nc3ccc(N(C)C(=O)CN4CCN(C)CC4)cc3)c3ccccc3)c(O)[nH]c2c1 + CNCc1ccccc1-c1csc(C(C)Nc2nc(C)nc3cc(OC)c(OC)cc23)c1",
    "Category": "MET"
  },
  {
    "Compound": "CC(=O)OC12COC1CC(O)C1(C)C(=O)C(O)C3=C(C)C(OC(=O)C(O)C(NC(=O)OC(C)(C)C)c4ccccc4)CC(O)(C(OC(=O)c4ccccc4)C21)C3(C)C (stereo not given) + CC1OCC2(CCN(c3cnc(Sc4ccnc(N)c4Cl)c(N)n3)CC2)C1N",
    "Category": "NOT MET"
  },
  {
    "Compound": "CC1OCC2(CCN(c3cnc(Sc4ccnc(N)c4Cl)c(N)n3)CC2)C1N (stereo not given) + COc1cc2nc(C)nc(NC(C)c3cc(N)cc(C(F)(F)F)c3)c2cc1OC1CCOC1",
    "Category": "NOT MET"
  },
  {
    "Compound": "COC(=O)c1ccc2c(C(=Nc3ccc(N(C)C(=O)CN4CCN(C)CC4)cc3)c3ccccc3)c(O)[nH]c2c1 + C=CC(=O)N1CCN(c2nc(=O)n(-c3c(C)ccnc3C(C)C)c3nc(-c4c(O)cccc4F)c(F)cc23)C(C)C1",
    "Category": "MET"
  },
  {
    "Compound": "CC(C)NCC(C(=O)N1CCN(c2ncnc3c2C(C)CC3O)CC1)c1ccc(Cl)cc1 (stereo not given) + C=CC(=O)N1CCN(c2nc(=O)n(-c3c(C)ccnc3C(C)C)c3nc(-c4c(O)cccc4F)c(F)cc23)C(C)C1",
    "Category": "MET"
  }
]
